Target: AKT1 E17K (Homo sapiens, UniProt P31749, E17K)
Sequence (P31749 whole entry E17K): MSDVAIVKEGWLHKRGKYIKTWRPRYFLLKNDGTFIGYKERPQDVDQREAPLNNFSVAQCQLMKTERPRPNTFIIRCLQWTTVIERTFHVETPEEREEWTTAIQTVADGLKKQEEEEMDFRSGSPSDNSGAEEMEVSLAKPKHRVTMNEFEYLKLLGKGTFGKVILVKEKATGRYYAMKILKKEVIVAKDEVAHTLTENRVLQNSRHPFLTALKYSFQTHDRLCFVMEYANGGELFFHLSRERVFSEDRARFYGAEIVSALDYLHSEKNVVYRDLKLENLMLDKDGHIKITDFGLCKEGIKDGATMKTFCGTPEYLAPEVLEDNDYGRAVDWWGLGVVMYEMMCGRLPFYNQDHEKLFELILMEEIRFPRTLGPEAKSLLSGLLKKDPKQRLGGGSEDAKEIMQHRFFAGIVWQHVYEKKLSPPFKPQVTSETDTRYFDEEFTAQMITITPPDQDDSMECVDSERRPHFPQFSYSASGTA
Assay: Live cell AKT1 E17K target engagement by NanoBRET competitive probe displacement
Details: HEK293 cells transfected with kinase-NanoLuciferase fusion, 2 h at 37° C.
pIC50: −log10 of the molar value.
RECORDED_ENDPOINT: pIC50

compound="C=CC(=O)N1CCC12CCC(N[C@H]1CCc3cc(-n4c(-c5cccnc5N)nc5ccc(-n6cccn6)nc54)ccc31)CC2 (stereo partly drawn) [Example 80]" recorded_endpoint=pIC50 meas_value=7.38
compound="C=CC(=O)N1CCC(NC2c3ccc(-n4c(-c5cccnc5N)nc5ccc(-n6cccn6)nc54)cc3CC2O)CC1 (single isomer, unassigned) [Example 150]" recorded_endpoint=pIC50 meas_value=6.67
compound="C=CC(=O)N1CCC(N[C@@H]2c3ccc(-n4c(-c5cccnc5N)nc5ccc(-n6cccn6)nc54)cc3CC2F)C[C@H]1C (single isomer, unassigned) [Example 146]" recorded_endpoint=pIC50 meas_value=7.11

----------
Target: AKT1 WT (Homo sapiens)
Sequence (P31749 whole entry): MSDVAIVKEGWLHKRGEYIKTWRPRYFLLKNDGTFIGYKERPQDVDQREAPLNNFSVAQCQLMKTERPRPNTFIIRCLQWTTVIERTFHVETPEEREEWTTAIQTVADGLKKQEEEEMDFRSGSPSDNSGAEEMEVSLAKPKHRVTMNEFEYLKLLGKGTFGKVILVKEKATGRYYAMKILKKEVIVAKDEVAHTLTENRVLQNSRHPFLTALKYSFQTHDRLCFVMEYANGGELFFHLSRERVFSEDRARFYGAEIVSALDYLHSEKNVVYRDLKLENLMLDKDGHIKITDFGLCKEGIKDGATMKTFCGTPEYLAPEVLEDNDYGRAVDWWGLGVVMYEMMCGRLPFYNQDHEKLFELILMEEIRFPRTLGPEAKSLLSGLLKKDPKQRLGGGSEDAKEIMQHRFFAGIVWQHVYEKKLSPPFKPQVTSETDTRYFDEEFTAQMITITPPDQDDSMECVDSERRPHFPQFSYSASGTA
Assay: Live cell AKT1 WT target engagement by NanoBRET competitive probe displacement
Settings: HEK293 cells transfected with kinase-NanoLuciferase fusion, 2 h at 37° C.
# log10 IC50 listing for each entry below
RECORDED_ENDPOINT: log10 IC50 (log10 of the value in nM)

molecule="C=CC(=O)N1CCC(N[C@H]2CCc3cc(-n4c(-c5cccnc5N)nc5ccc(-n6cccn6)nc54)ccc32)C(C)C1 (single isomer, unassigned) [Example 101]" meas_value=1.26
molecule="C=CC(=O)N1CCC(N[C@@H]2c3ccc(-n4c(-c5ccccc5)nc5ccc(-n6cccn6)nc54)cc3CC2F)CC1C(F)F (single isomer, unassigned) [Example 331]" meas_value=2.91
molecule="C=CC(=O)Nc1cc(C(F)F)ccc1C(=O)N[C@H]1CCc2cc(-n3c(-c4cccnc4N)nc4ccc(-n5cccn5)nc43)ccc21 [Example 43]" meas_value=2.50
molecule="C=CC(=O)N1CCC(N[C@@H]2c3ccc(-n4c(-c5ccccc5F)nc5ccc(-n6cccn6)nc54)cc3CC2F)C[C@H]1C (single isomer, unassigned) [Example 317]" meas_value=3.41
molecule="C=CC(=O)N1CCc2c(C(=O)N[C@H]3CCc4cc(-n5c(-c6cccnc6N)nc6ccc(-n7cccn7)nc65)ccc43)cccc21 [Example 3]" meas_value=1.18
molecule="C=CC(=O)N1CCC(N[C@H]2CCc3cc(-n4c(-c5cccnc5N)nc5ccc(-n6ccc(OC7CC7)n6)nc54)ccc32)CC1 [Example 314]" meas_value=1.98
molecule="C=CC(=O)N1CCC(N[C@H]2CCc3cc(-n4c(-c5cccnc5N)nc5ccc(N6CCCOCC6)nc54)ccc32)CC1 [Example 205]" meas_value=3.24
molecule="C=CC(=O)N1CCC(N[C@H]2CCc3cc(-n4c(-c5cccnc5N)nc5cc(-c6cccnc6)cnc54)ccc32)CC1 [Example 190]" meas_value=2.87
molecule="C=CC(=O)N1CCC(N[C@@H]2c3ccc(-n4c(-c5cccnc5N)nc5ccc(-n6cccn6)nc54)cc3CC2F)C[C@H]1C (single isomer, unassigned) [Example 146]" meas_value=1.36

----------
Molecular target: AKT1 E17K (Homo sapiens, UniProt P31749, E17K)
Test: Live cell AKT1 E17K target engagement by NanoBRET competitive probe displacement
Settings: HEK293 cells transfected with kinase-NanoLuciferase fusion, 2 h at 37° C.
pIC50: −log10 of the molar value.
# pIC50 listing for each entry below
RECORDED_ENDPOINT: pIC50

molecule=C=CC(=O)Nc1cc(C(F)F)ccc1C(=O)N[C@H]1CCc2cc(-n3c(-c4cccnc4N)nc4ccc(-n5cccn5)nc43)ccc21 meas_value="< 6.00"
molecule="C=CC(=O)N1CCC(N[C@H]2CCc3cc(-n4c(-c5cccnc5N)nc5ccc(-n6cccn6)nc54)ccc32)C(F)C1 (single isomer, unassigned) [Example 106]" meas_value=7.69
molecule="C=CC(=O)N1CCC(NC2c3ccc(-n4c(-c5cccnc5N)nc5ccc(-n6cccn6)nc54)cc3CC2O)CC1 (single isomer, unassigned) [Example 151]" meas_value="< 6.00"

----------
# pIC50 listing for each entry below
Target: AKT1 E17K (Homo sapiens, UniProt P31749, E17K)
Assay: Live cell AKT1 E17K target engagement by NanoBRET competitive probe displacement
Conditions: HEK293 cells transfected with kinase-NanoLuciferase fusion, 2 h at 37° C.
pIC50: −log10 of the molar value.
RECORDED_ENDPOINT: pIC50

molecule=C=CC(=O)N1CCN(N[C@H]2CCc3cc(-n4c(-c5cccnc5N)nc5ccc(C6CC6)nc54)ccc32)CC1 recorded_endpoint=pIC50 value_qualifier== meas_value=7.49
molecule="C=CC(=O)N1CCC(N[C@H]2CCc3cc(-n4c(-c5cccnc5N)nc5ccc(-n6cccn6)nc54)ccc32)C(F)C1 (single isomer, unassigned) [Example 104]" recorded_endpoint=pIC50 value_qualifier== meas_value=7.69
molecule=C=CC(=O)N1CCC[C@@H]1C(=O)N[C@H]1CCc2cc(-n3c(-c4cccnc4N)nc4ccc(-n5cccn5)nc43)ccc21 recorded_endpoint=pIC50 value_qualifier=< meas_value=6.00
molecule="C=CC(=O)N1CCC(N[C@H]2CCc3cc(-n4c(-c5cccnc5N)nc5ccc(-n6cccn6)nc54)ccc32)CC1CC#N (single isomer, unassigned) [Example 339]" recorded_endpoint=pIC50 value_qualifier== meas_value=7.49
molecule=C=CC(=O)N1CCC(N[C@@H]2CCc3cc(-n4c(-c5cccnc5N)nc5ccc(-n6cccn6)nc54)ccc32)CC1 recorded_endpoint=pIC50 value_qualifier== meas_value=7.22
molecule=C=CC(=O)N1CCC(N[C@H]2CC(F)(F)c3cc(-n4c(-c5cccnc5N)nc5ccc(-n6cccn6)nc54)ccc32)CC1 recorded_endpoint=pIC50 value_qualifier== meas_value=7.20

----------
# log10 of IC50 listing for each entry below
Biological target: UniProt P31749
Test: Live cell AKT1 WT target engagement by NanoBRET competitive probe displacement
Details: HEK293 cells transfected with kinase-NanoLuciferase fusion, 2 h at 37° C.
RECORDED_ENDPOINT: log10 of IC50 (log10 of the value in nM)

compound="C=CC(=O)N1CC2CC[C@@H]1CC2N[C@H]1CCc2cc(-n3c(-c4cccnc4N)nc4ccc(-n5cccn5)nc43)ccc21 (single isomer, unassigned) [Example 132]" meas_value=1.99
compound="C=CC(=O)N1CCC(NC2c3ccc(-n4c(-c5cccnc5N)nc5ccc(-n6ccc(C7CC7)n6)nc54)cc3CC2F)CC1C(F)F (single isomer, unassigned) [Example 335]" meas_value=2.46
compound="C=CC(=O)Nc1ccc(F)cc1C(=O)N[C@H]1CCc2cc(-n3c(-c4cccnc4N)nc4ccc(-n5cccn5)nc43)ccc21 [Example 20]" meas_value=0.88
compound="C=CC(=O)N1CCC(N[C@H]2CCc3cc(-n4c(-c5cccnc5N)nc5ccc(-c6cnn(C(F)(F)F)c6)nc54)ccc32)CC1 [Example 225]" meas_value=2.49
compound="C=CC(=O)N1CCC(N[C@H]2CCc3cc(-n4c(-c5ccccc5)nc5ccc(-n6ccc(F)n6)nc54)ccc32)CC1 [Example 282]" meas_value=3.20
compound="C=CC(=O)N1CCC(N[C@H]2CCc3cc(-n4c(-c5cccnc5N)nc5ccc(-n6cccn6)nc54)ccc32)C(O)C1 (single isomer, unassigned) [Example 140]" meas_value=2.57
compound="C=C(F)C(=O)N1CCc2c(C(=O)N[C@H]3CCc4cc(-n5c(-c6cccnc6N)nc6ccc(-n7cccn7)nc65)ccc43)cccc21 [Example 18]" meas_value=1.79
compound="C=CC(=O)N1CCC(N[C@@H]2c3ccc(-n4c(-c5ccccc5F)nc5ccc(-n6cccn6)nc54)cc3CC2F)CC1 (single isomer, unassigned) [Example 299]" meas_value=3.07
compound="C=CC(=O)N1CCC(N[C@@H]2c3ccc(-n4c(-c5cccnc5N)nc5ccc(-n6cccn6)nc54)cc3CC2F)CC1C(F)F (single isomer, unassigned) [Example 304]" meas_value=2.42
compound="C=CC(=O)N1CCCC(c2cn([C@H]3CCc4cc(-n5c(-c6cccnc6N)nc6ccc(-n7cccn7)nc65)ccc43)nn2)C1 (single isomer, unassigned) [Example 168]" meas_value=2.76

----------
Target: AKT2 (Homo sapiens)
Sequence (P31751 whole entry): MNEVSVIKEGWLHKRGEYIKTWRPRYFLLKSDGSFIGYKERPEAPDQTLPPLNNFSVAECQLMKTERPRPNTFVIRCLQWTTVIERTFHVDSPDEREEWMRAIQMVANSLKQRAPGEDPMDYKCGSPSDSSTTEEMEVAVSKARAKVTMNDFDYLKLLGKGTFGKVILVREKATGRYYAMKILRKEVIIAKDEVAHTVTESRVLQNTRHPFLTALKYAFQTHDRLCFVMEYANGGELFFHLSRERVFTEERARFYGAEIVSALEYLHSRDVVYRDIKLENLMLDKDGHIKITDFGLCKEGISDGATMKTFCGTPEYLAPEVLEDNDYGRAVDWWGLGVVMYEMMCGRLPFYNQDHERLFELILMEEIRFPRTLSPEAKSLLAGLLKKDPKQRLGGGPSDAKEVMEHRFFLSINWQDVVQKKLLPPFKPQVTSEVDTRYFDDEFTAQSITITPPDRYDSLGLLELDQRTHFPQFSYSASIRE
Assay: Live cell AKT2 target engagement by NanoBRET competitive probe displacement
Conditions: HEK293 cells transfected with kinase-NanoLuciferase fusion, 2 h at 37° C.
pIC50: −log10 of the molar value.
RECORDED_ENDPOINT: pIC50

molecule="C=CC(=O)N1CCC(N[C@@H]2c3ccc(-n4c(-c5cccnc5N)nc5ccc(-n6ccc(F)n6)nc54)cc3CC2F)CC1 (single isomer, unassigned) [Example 237]" recorded_endpoint=pIC50 meas_value=7.05
molecule="C=CC(=O)N1CCC(N[C@H]2CCc3cc(-n4c(-c5cccnc5N)nc5ccc(-n6cccn6)nc54)ccc32)C(O)C1 (single isomer, unassigned) [Example 139]" recorded_endpoint=pIC50 meas_value=6.94
molecule=C=CC(=O)Nc1ccccc1CN[C@H]1CCc2cc(-n3c(-c4cccnc4N)nc4ccc(-n5cccn5)nc43)ccc21 recorded_endpoint=pIC50 meas_value=7.02
molecule="C=CC(=O)N1CCC(N[C@@H]2c3ccc(-n4c(-c5cccnc5N)nc5ccc(-n6cccn6)nc54)cc3CC2OC)CC1 (single isomer, unassigned) [Example 162]" recorded_endpoint=pIC50 meas_value=5.23
molecule="C=CC(=O)N1CCC(N[C@@H]2c3ccc(-n4c(-c5ccccc5F)nc5ccc(-n6cccn6)nc54)cc3CC2F)C[C@H]1C (single isomer, unassigned) [Example 317]" recorded_endpoint=pIC50 meas_value=7.16
molecule=C=CC(=O)N1CCC(N[C@H]2CCc3cc(-n4c(-c5cccnc5N)nc5ccc(N6CC7CCC(C6)O7)nc54)ccc32)CC1 recorded_endpoint=pIC50 meas_value=6.04
